System: SK-OV-3 ovarian
METHOD_DESCRIPTION: NCI tumour cell line growth inhibition, 48 h
RESULT_TYPE: TGI

Exam item: I'd like to know its TGI. The compound in question is "COC(=O)C1=CCC[C@H]2[C@@]1(COC(C)=O)CC[C@@H](C)[C@]2(C)CC(=O)c1ccoc1"
Marked response: > 50 µM

Exam item: What do you get for "COc1cccc(/C=N/[N+](C)(C)C)c1O" ?
Marked response: > 10 µM

Exam item: What do you get for CCCOC(=O)C1C(c2ccc(OC)cc2)NC(c2ccc(OC)cc2)C(C(=O)OCCC)S1(=O)=O (configuration not stated) ?
Marked response: > 100 µM

Exam item: What do you get for "CCC(=O)NC(NNS(=O)(=O)c1ccc(C)cc1)(C(F)(F)F)C(F)(F)F" ?
Marked response: > 100 µM

Exam item: What do you get for "Cc1ccccc1-c1cc(=O)c2cc(C)c(C)c(C(=O)O)c2o1" ?
Marked response: > 100 µM

Exam item: What do you get for "Nc1ncnc2occ(-c3ccc(NC(=O)Nc4cccc(C(F)(F)F)c4)cc3)c12" ?
Marked response: 17.9 µM

Exam item: What do you get for "CCOC(=O)c1c(C)n(Cc2ccc(Cl)cc2Cl)c2c1cc(O)c1[nH]c(Cc3ccccc3)nc12" ?
Marked response: 32 µM

Exam item: What do you get for "CSc1cc(Cl)c(C(=O)Nc2ccccc2)cc1S(=O)(=O)n1cc[nH]c1=O" ?
Marked response: > 100 µM

Exam item: What do you get for "CN(COC(=O)C(C)(C)C)c1nc(N(C)COC(=O)C(C)(C)C)nc(N(C)COC(=O)C(C)(C)C)n1" ?
Marked response: > 100 µM

Exam item: What do you get for C=CCN=C1NC(=O)C(CC(=O)Nc2ccc([N+](=O)[O-])cc2[N+](=O)[O-])S1 (configuration not stated) ?
Marked response: > 100 µM

Exam item: What do you get for "COc1c(O)ccc(/C=N/NC(=S)NCOCCOC(C)=O)c1OC" ?
Marked response: > 100 µM

Exam item: What do you get for C[C@H]1CCC/C=C/[C@@H]2C[C@H](O)C[C@H]2[C@H](O)C(O)C(O)C(=O)O1 (some centres not stated) ?
Marked response: > 100 µM

Exam item: What do you get for "CC1(C)COC(c2cccc(C(=O)c3ccccc3)c2)=N1" ?
Marked response: > 100 µM

Exam item: What do you get for "Fc1nc(-c2c3ccccc3c3sc4ccccc4n23)nc(N2CCOCCOCCOCCOCC2)n1" ?
Marked response: > 100 µM

Exam item: What do you get for "O=[N+]([O-])c1cc2c(ccc3ccccc32)o1" ?
Marked response: 6.25 µM

Exam item: What do you get for "O=C1c2ccccc2C(=O)N1CCN(CCN1C(=O)c2ccccc2C1=O)Cc1ccccc1" ?
Marked response: > 100 µM

Exam item: What do you get for "Cc1cc(N)c2cc(NC(=O)/C=C\c3ccccc3Cl)ccc2n1" ?
Marked response: 3.27 µM

// data source = PubChem BioAssay (NCI)
